Target: human orexin type 2 receptor (Homo sapiens)
Construct: human orexin type 2 receptor cDNA was inserted into pcDNA3.1(+) plasmid vector (Invitrogen); expressed in transfected cells
Sequence (O43614 1-444): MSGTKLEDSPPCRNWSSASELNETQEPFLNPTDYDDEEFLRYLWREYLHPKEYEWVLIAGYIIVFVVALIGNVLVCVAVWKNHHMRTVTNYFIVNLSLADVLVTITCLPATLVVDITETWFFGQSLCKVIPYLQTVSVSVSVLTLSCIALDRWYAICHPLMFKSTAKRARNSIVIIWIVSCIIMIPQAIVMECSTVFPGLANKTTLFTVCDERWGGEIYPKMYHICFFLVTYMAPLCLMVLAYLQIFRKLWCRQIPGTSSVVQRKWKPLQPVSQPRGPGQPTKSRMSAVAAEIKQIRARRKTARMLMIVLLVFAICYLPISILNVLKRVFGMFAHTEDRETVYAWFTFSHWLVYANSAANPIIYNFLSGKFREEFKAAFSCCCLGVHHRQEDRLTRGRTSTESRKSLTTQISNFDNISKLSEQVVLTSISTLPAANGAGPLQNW
Experiment: Measurement of orexin type 2 receptor agonist activity (calcium fluorescence, CHO cells expressing hOX2R)
Format: cell-based
Details: test compound 3 μM; CHO cells expressing human OX2 receptor; DMSO = 0%, orexin A (human) = 100%
Text: To obtain a cell clone stably expressing human orexin type 2 receptor, human orexin type 2 receptor cDNA was inserted into pcDNA3.1(+) plasmid vector (Invitrogen), and a plasmid DNA for expression of human orexin type 2 receptor (pcDNA3.1(+)/hOX2R) was cloned. The plasmid DNA was introduced into CHO-dhfr cell by an electroporation method, and human orexin type 2 receptor expressing clone cells were obtained by limiting dilution method by using G418 drug resistance as a selection marker. […]
Assay readout: OX2R agonist activity (3 μM, %)
Numbers only here, please. The scale is %.

[
  {
    "Compound": "CS(=O)(=O)N[C@H]1CCN(C(=O)C2CCC2)[C@H]1Cc1cccc(-c2cccc(F)c2)c1 [Example 262]",
    "Unit annotation": "%",
    "OX2R agonist activity (3 μM, %)": 101
  },
  {
    "Compound": "CCNC(=O)N1CCC[C@H](NS(C)(=O)=O)[C@@H]1Cc1cccc(OC2CCCCC2)c1 (relative stereo) [Example 7]",
    "Unit annotation": "%",
    "OX2R agonist activity (3 μM, %)": 62
  },
  {
    "Compound": "O=C(N1CCC1)N1CC[C@H](NS(=O)(=O)C2CC2)[C@@H]1Cc1cccc(-c2cccc(F)c2)c1 [Example 462]",
    "Unit annotation": "%",
    "OX2R agonist activity (3 μM, %)": 112
  }
]

Requested read-out: OX2R agonist activity (3 μM, %). Entry: CC(=O)N1CCC[C@H](NS(C)(=O)=O)[C@@H]1Cc1cccc(-c2ccccc2)c1 (relative stereo) [Example 22]
60

Report OX2R agonist activity (3 μM, %) for CC(C)(O)C(=O)N1CC[C@H](NS(C)(=O)=O)[C@@H]1Cc1cccc(-c2cccc(F)c2)c1F [Example 387] please.
106

Bench note: what OX2R agonist activity (3 μM, %) did CC(C)OC(=O)N1CCCC(NS(C)(=O)=O)C1Cc1cccc(-c2ccccc2)n1 (stereo not shown) [Example 76] show?
106

Param item = CS(=O)(=O)N[C@H]1CCN(C(=O)C23CC(C2)C3)[C@H]1Cc1cccc(-c2cc(F)cc(F)c2)c1 [Example 307] ; retrieve measured OX2R agonist activity (3 μM, %).
102
